These data points were gathered from patent US20070065439A1.

biological target: Cynomolgus monkey IL-1β (cynomolgus monkey); test: Biacore low-res, mAb captured, cyno IL-1β 117 nM, 25C
Sequence (P48090 117-269 limits assumed): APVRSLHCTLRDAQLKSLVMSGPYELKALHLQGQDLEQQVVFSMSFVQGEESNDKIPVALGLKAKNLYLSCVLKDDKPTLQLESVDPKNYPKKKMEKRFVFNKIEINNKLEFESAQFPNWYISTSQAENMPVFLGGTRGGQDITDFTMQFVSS
Would you kindly list kon for each of these binders?
# number only, unit M⁻¹ s⁻¹ dropped from output

Can you look up the measured kon of 6.26.1 (antibody, human IgG4, V domains shown) VH: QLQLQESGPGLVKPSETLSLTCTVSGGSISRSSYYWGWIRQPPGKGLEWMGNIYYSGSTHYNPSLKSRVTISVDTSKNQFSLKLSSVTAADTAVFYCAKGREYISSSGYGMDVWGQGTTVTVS VL: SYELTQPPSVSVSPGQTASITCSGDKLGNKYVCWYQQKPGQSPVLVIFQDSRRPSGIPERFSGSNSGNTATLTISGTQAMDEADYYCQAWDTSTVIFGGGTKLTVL for me?
270000

I am curious: what kon value has been reported for 9.19.1 (antibody, human IgG4, V domains shown) VH: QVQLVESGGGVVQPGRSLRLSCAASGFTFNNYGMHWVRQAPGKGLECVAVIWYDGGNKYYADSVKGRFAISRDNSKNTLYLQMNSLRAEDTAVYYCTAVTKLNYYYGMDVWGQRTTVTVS VL: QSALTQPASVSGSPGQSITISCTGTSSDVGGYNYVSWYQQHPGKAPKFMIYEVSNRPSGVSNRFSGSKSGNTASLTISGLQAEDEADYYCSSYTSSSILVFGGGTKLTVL ?
260000

Fill in: kon of 9.11.1 (antibody, human IgG4, V domains shown) VH: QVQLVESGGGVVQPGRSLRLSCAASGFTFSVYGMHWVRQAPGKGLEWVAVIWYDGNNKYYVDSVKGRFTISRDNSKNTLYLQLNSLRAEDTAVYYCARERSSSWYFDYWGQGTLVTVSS VL: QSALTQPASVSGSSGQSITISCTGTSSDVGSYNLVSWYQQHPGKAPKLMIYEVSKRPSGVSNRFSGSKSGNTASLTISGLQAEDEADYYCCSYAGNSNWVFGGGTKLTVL is ___
330000

Would you kindly share the measured kon for 9.26.1 (antibody, human IgG4, V domains shown) VH: QVQLVESGGGVVQPGRSLRLSCAASGFTFNNYGMHWVRQAPGKGLECVAVIWYDGGNKYYADSVKGRFAISRDNSKNTLYLQMNSLRAEDTAVYYCTAVTKLNYYYGMDVWGQGTTVTVS VL: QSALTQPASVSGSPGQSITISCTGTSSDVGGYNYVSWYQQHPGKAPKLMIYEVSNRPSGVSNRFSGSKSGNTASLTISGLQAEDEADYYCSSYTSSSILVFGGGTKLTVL ?
150000

# get_value(readout='kon', item= 9.2.1 (antibody, human IgG4, V domains shown) VH: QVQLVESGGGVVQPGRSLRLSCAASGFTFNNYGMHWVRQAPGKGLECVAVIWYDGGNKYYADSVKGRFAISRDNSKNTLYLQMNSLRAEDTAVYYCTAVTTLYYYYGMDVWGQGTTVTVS VL: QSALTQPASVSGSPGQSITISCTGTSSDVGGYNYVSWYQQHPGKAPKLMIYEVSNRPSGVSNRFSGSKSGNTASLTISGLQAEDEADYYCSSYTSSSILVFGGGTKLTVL )
310000

Which measured kon value corresponds to 8.18.1 (antibody, human IgG4, V domains shown) VH: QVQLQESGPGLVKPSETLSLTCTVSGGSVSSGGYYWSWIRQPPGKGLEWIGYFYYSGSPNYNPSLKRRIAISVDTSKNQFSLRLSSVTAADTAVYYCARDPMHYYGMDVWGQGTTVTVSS VL: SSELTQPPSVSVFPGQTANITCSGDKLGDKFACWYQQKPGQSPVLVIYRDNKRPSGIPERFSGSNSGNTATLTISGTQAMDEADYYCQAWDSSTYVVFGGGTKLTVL ?
110000
